measured_on: UniProtKB P10827
Sequence (P10827 1-410 isoform P10827-2): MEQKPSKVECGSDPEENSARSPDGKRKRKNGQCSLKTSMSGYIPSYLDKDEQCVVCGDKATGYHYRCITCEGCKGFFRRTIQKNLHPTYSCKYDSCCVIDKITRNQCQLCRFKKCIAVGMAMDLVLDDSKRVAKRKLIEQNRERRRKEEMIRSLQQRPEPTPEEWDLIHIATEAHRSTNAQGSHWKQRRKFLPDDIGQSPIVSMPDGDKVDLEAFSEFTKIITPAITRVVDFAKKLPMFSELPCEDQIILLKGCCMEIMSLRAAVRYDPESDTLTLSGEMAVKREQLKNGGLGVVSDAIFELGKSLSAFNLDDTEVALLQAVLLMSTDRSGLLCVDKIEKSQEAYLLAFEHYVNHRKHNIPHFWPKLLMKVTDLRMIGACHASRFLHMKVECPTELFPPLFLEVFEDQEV
test_method_notes: Receptor binding assay: competition with [125I]T3 for binding to recombinant hTRα
pKd: −log10 of the molar value.
Listed here are compounds together with their documented pKd.

compound | measured_on | pKd
CCCCN(C)C(=O)CCCCCC/C=C\CCC(c1ccc(O)c(C(C)C)c1)c1c(C)cc(OCC(=O)O)cc1C (stereo not drawn) [Compound I-2] | UniProtKB P10827 | ~6.63
C=CCC(c1ccc(O)c(C(C)C)c1)c1c(C)cc(OCC(=O)O)cc1C (stereo not drawn) [Compound I-3] | UniProtKB P10827 | ~6.86

// next entry
[ask] Which pKd reading was recorded for the compound CCCCN(C)C(=O)CCCCCCCCCCC(c1ccc(O)c(C(C)C)c1)c1c(C)cc(OCC(=O)O)cc1C (stereo not drawn) [Compound I-1] ?
[reply] ~7.11

Every entry's value here was drawn from patent US6107517A.
